# PROTOCOL SUMMARY: Growth inhibition of DLA cells at 500 ug/mL after 3 hrs
# Assay type: functional
# APPLIED CONDITIONS: Mus musculus
Residues, ends and D or L forms follow the SMILES beside them. *: point of attachment. X2 = O=C(c1cc(-c2nc3ccc([N+](=O)[O-])cc3[nH]2)ccc1O)*
ASSAY READOUT: inhibition at 500 µg/mL (%)
Answers are plain numbers, in %.

Worked set:
molecule="COC(=O)CNC(=O)[C@H](CC(C)C)NC(=O)[C@@H]1CCCN1C(=O)[C@H](Cc1cnc[nH]1)NC(=O)c1cc(-c2nc3ccc([N+](=O)[O-])cc3[nH]2)ccc1O (X2-HPLG-OMe)" recorded_number=39.5
molecule=C[C@H](NC(=O)[C@@H]1CCCN1C(=O)c1cc(-c2nc3ccc([N+](=O)[O-])cc3[nH]2)ccc1O)C(=O)O recorded_number=34.2
molecule=O=C(O)[C@@H]1CCCN1C(=O)[C@@H]1CCCN1C(=O)[C@@H]1CCCN1C(=O)c1cc(-c2nc3ccc([N+](=O)[O-])cc3[nH]2)ccc1O recorded_number=65.8

Dear colleague, could you please provide inhibition at 500 µg/mL for the molecules listed below?
1. CC(C)[C@H](NC(=O)c1cc(-c2nc3ccc([N+](=O)[O-])cc3[nH]2)ccc1O)C(=O)N[C@@H](Cc1ccccc1)C(=O)N[C@@H](Cc1cnc[nH]1)C(=O)O
2. Cc1cc2nc(-c3c(I)cc(C(=O)N[C@@H](Cc4cnc[nH]4)C(=O)N4CCC[C@H]4C(=O)O)cc3I)[nH]c2cc1C

### Response
[42.1, 52.6]

====

# PROTOCOL SUMMARY: Anthelmintic activity against Megascoplex konkanensis ICARBC 211 assessed as mean death time
# Assay type: functional
Residues, ends and D or L forms follow the SMILES beside them. *: point of attachment. X1 = Cc1cc2nc(-c3ccc(O)c(C(=O)*)c3)[nH]c2cc1C
ASSAY READOUT: TIME (h)
One number for each entry, in h.

Worked set:
compound="Cc1cc2nc(-c3ccc(O)c(C(=O)NCC(=O)N[C@@H](Cc4c[nH]c5ccccc45)C(=O)NCC(=O)N[C@@H](Cc4cnc[nH]4)C(=O)O)c3)[nH]c2cc1C (X1-GWGH-OH)" assay_readout=TIME reading_unit=h recorded_number=0.289
compound=COC(=O)CNC(=O)[C@H](Cc1ccc(O)cc1)NC(=O)[C@H](C)NC(=O)c1cc(I)c(-c2nc3cc(C)c(C)cc3[nH]2)c(I)c1 assay_readout=TIME reading_unit=h recorded_number=0.652

Now look at this entry.
### Prompt Supply TIME value. Item: `COC(=O)[C@H](Cc1ccc(O)cc1)NC(=O)[C@H](Cc1cnc[nH]1)NC(=O)c1ccc(-c2nc3cc(C)c(C)cc3[nH]2)cc1`
### Response 0.377

====

Record form. Attribute: inhibition at 250 µg/mL. Fill in for each entry.
# PROTOCOL SUMMARY: Growth inhibition of DLA cells at 250 ug/mL after 3 hrs
# Assay type: functional
# APPLIED CONDITIONS: Mus musculus
Answers are plain numbers, in %.

compound_string=COC(=O)[C@H](Cc1cnc[nH]1)NC(=O)[C@H](Cc1cnc[nH]1)NC(=O)c1cc(-c2nc3cc(C)c(C)cc3[nH]2)ccc1O assay_readout="inhibition at 250 µg/mL" recorded_number=31.6
compound_string=O=C(O)[C@@H]1CCCN1C(=O)[C@@H]1CCCN1C(=O)[C@@H]1CCCN1C(=O)c1cc(-c2nc3ccc([N+](=O)[O-])cc3[nH]2)ccc1O assay_readout="inhibition at 250 µg/mL" recorded_number=52.6

### Prompt Supply inhibition at 250 µg/mL value. Item: `CC(C)[C@H](NC(=O)c1cc(-c2nc3ccc([N+](=O)[O-])cc3[nH]2)ccc1O)C(=O)N[C@@H](Cc1ccccc1)C(=O)N[C@@H](Cc1cnc[nH]1)C(=O)O`
### Response 28.9
